measurement-description: Antiproliferative activity against human HeLa cells assessed as inhibition of cell growth incubated for 24 hrs by SRB assay
Type: toxicity, cell-based
metric-name: IC50 at 24 h (µM)

CCOC(=O)c1c(CSc2ccc(OC)cc2)nc2ccc(Br)cn12: 41
